Data origin, for the record: ChEMBL document CHEMBL3734705

Here, each record is paired with measured inhibition of growth at 10 µM data.
assay: Cytotoxicity against human MOLT4 cells assessed as growth inhibition at 10 uM after 48 hrs by SRB assay; format: functional; conditions: MOLT-4, 48 h, read-out: GI
Return type: number; implicit unit %.

> print(dat)
                                   compound  assay.value
1  C=C1CC[C@@H]2[C@](C)(COC(C)=O)[C@H](OC(C)=O)CC[C@@]2(C)[C@@H]1CC(NCc1ccc(F)cc1)C1=CCOC1=O (mixture of isomers)         0.37

The value of inhibition of growth at 10 µM measured for the compound C=C1CC[C@@H]2[C@](C)(COC(C)=O)[C@H](OC(C)=O)CC[C@@]2(C)[C@@H]1CC(NCc1cccc(Cl)c1)C1=CCOC1=O (mixture of isomers) turned out to be 78.1

C=C1CC[C@@H]2[C@](C)(COC(C)=O)[C@H](OC(C)=O)CC[C@@]2(C)[C@@H]1CC(NC1CCCC1)C1=CCOC1=O (stereo partly drawn) yielded inhibition of growth at 10 µM of 57.6

# inhibition of growth at 10 µM (compound: C=C1CC[C@@H]2[C@](C)(COC(C)=O)[C@H](OC(C)=O)CC[C@@]2(C)[C@@H]1CC(NCCCC)C1=CCOC1=O (mixture of isomers) ) is 44.5

C=C1CC[C@@H]2[C@](C)(COC(C)=O)[C@H](OC(C)=O)CC[C@@]2(C)[C@@H]1C/C=C1/C(=O)OC[C@H]1OC(C)=O yielded inhibition of growth at 10 µM of 6.05

Notebook: C=C1CC[C@@H]2[C@](C)(CO)[C@H](O)CC[C@@]2(C)[C@@H]1C/C=C1/C(=O)OC[C@H]1O [ANDROGRAPHOLIDE] , inhibition of growth at 10 µM read as 1.89

Short answer for C=C1CC[C@@H]2[C@](C)(COC(C)=O)[C@H](OC(C)=O)CC[C@@]2(C)[C@@H]1CC(NCCCCCCCC)C1=CCOC1=O (mixture of isomers) : inhibition of growth at 10 µM was 63.5

Sure, the documented inhibition of growth at 10 µM for C=C1CC[C@@H]2[C@](C)(COC(C)=O)[C@H](OC(C)=O)CC[C@@]2(C)[C@@H]1CC(NCc1ccccc1)C1=CCOC1=O (mixture of isomers) is 3.86

---

test: Cytotoxicity against human OVCAR4 cells assessed as growth level at 10 uM after 48 hrs by SRB assay; assay type: functional, OVCAR-4
In this section we review reported Activity values for a set of molecules.
Number only, in %; omit the unit.

> print(dat)
                                   molecule  result.unit  assay.value
1  C=C1CC[C@@H]2[C@](C)(COC(C)=O)[C@H](OC(C)=O)CC[C@@]2(C)[C@@H]1CC(NCCCCCCCCCCCCCCCCCC)C1=CCOC1=O (mixture of isomers)            %       114.35
2  C=C1CC[C@@H]2[C@](C)(COC(C)=O)[C@H](OC(C)=O)CC[C@@]2(C)[C@@H]1CC(NCc1ccccc1)C1=CCOC1=O (mixture of isomers)            %        35.88
3  C=C1CC[C@@H]2[C@](C)(CO)[C@H](O)CC[C@@]2(C)[C@@H]1C/C=C1/C(=O)OC[C@H]1O [ANDROGRAPHOLIDE]            %        82.87
4  C=C1CC[C@@H]2[C@](C)(COC(C)=O)[C@H](OC(C)=O)CC[C@@]2(C)[C@@H]1CC(NC1CCCC1)C1=CCOC1=O (some centres undefined)            %        58.35
5  C=C1CC[C@@H]2[C@](C)(COC(C)=O)[C@H](OC(C)=O)CC[C@@]2(C)[C@@H]1CC(NCCCCCCCC)C1=CCOC1=O (mixture of isomers)            %        52.34
6  C=C1CC[C@@H]2[C@](C)(COC(C)=O)[C@H](OC(C)=O)CC[C@@]2(C)[C@@H]1CC(NCc1cccc(Cl)c1)C1=CCOC1=O (mixture of isomers)            %         50.4
7  C=C1CC[C@@H]2[C@](C)(COC(C)=O)[C@H](OC(C)=O)CC[C@@]2(C)[C@@H]1CC(NCCCC)C1=CCOC1=O (mixture of isomers)            %         85.7
8  C=C1CC[C@@H]2[C@](C)(COC(C)=O)[C@H](OC(C)=O)CC[C@@]2(C)[C@@H]1CC(Sc1ccccc1)C1=CCOC1=O (mixture of isomers)            %       100.23

As a next step, examine the molecule that follows.
Notebook: C=C1CC[C@@H]2[C@](C)(COC(C)=O)[C@H](OC(C)=O)CC[C@@]2(C)[C@@H]1CC(NC1CC1)C1=CCOC1=O (mixture of isomers) , Activity read as 101.59
